Entry source: paper PMC9599641

tested on: CnArg1 (IP3-4K from C. neoformans); assay: Kinase-Glo enzyme inhibition assay, recombinant CnArg1; type: biochemical; details: selectivity, ratio higher than 1 = more selective for CnArg1
propertyName: HsIPMK/CnArg1 IC50 ratio

Study these solved cases before continuing.
{"columns": ["molecule", "HsIPMK/CnArg1 IC50 ratio"],
 "data": [
  ["COCCNc1nc(NCc2cccc(Br)c2)nc2[nH]cnc12", 1.5],
  ["COCCNc1nc(Nc2ccc(OC)cc2)nc2[nH]cnc12", 0.4],
  ["COC(=O)c1cccc(CNc2nc(NCc3ccccc3)c3nc[nH]c3n2)c1", 3.4],
  ["COc1ccccc1CNc1nc(NCc2ccccc2)c2nc[nH]c2n1", 3.7]
]}

Now for a further molecule.
## Input // query HsIPMK/CnArg1 IC50 ratio value for entry COCCNc1nc(NCc2cccc(C(=O)OC)c2)nc2[nH]cnc12
## Output 3.8

---

// values below are reported HsIPMK/CnArg1 IC50 ratio
test system: CnArg1 (IP3-4K from C. neoformans); experiment: Kinase-Glo enzyme inhibition assay, recombinant CnArg1; assay type: biochemical; conditions: selectivity, ratio higher than 1 = more selective for CnArg1
# output: bare number, no unit

{"columns": ["molecule", "propertyName", "readoutNumber"],
 "data": [
  ["COCCNc1nc(NCc2cccc(C(F)(F)F)c2)nc2[nH]cnc12", "HsIPMK/CnArg1 IC50 ratio", 2.4],
  ["FC(F)(F)c1cccc(CNc2nc(N3CCOCC3)c3nc[nH]c3n2)c1", "HsIPMK/CnArg1 IC50 ratio", 3.4],
  ["FC(F)(F)c1cccc(CNc2nc(NCc3ccccc3)c3nc[nH]c3n2)c1", "HsIPMK/CnArg1 IC50 ratio", 1.1]
]}

## Input // query HsIPMK/CnArg1 IC50 ratio value for entry c1ccc(CNc2nc(NCC3CCOCC3)nc3[nH]cnc23)cc1
## Output 3.5

## Input Proceed to COc1cccc(CNc2nc(NCc3ccccc3)c3nc[nH]c3n2)c1
## Output 6.0

## Input Proceed to FC(F)Oc1cccc(CNc2nc(NCc3ccccc3)c3nc[nH]c3n2)c1
## Output 2.8

## Input Proceed to COCCNc1nc(Nc2ccc(O)cc2)nc2[nH]cnc12
## Output 0.4

## Input Proceed to COCCNc1nc(NCc2cccc(I)c2)nc2[nH]cnc12
## Output 4.0

## Input Proceed to O=[N+]([O-])c1ccc(CNc2nc(NCc3cccc(C(F)(F)F)c3)nc3[nH]cnc23)cc1
## Output 0.3

---

molecular target: HsIPMK (Homo sapiens); assay: Kinase-Glo enzyme inhibition assay, recombinant HsIPMK; also: 6 ng/µL enzyme
Sequence (Q8NFU5 whole entry): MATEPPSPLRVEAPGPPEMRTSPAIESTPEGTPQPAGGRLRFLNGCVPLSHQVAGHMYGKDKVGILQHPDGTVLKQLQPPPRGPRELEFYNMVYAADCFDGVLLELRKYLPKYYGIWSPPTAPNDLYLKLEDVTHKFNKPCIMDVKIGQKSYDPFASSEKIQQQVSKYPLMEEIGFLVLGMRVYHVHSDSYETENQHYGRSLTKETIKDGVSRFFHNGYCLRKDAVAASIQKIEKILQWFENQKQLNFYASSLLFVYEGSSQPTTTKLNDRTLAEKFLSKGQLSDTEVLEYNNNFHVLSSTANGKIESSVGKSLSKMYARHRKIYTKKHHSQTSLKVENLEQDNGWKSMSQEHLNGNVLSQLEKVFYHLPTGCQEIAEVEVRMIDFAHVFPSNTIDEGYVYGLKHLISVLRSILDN
// values below are reported IC50
I only need the number, in µM, no unit after it.

Study these solved cases before continuing.
{"columns": ["molecule", "IC50, µM"],
 "data": [
  ["Fc1ccc(CNc2nc(NCc3ccccc3)c3nc[nH]c3n2)cc1", 55],
  ["COCCNc1nc(NCc2cccc(C(=O)OC)c2)nc2[nH]cnc12", 144]
]}

## Input // query IC50 value for entry COc1ccccc1CNc1nc(NCc2ccccc2)c2nc[nH]c2n1
## Output 89

## Input Proceed to COC(=O)c1cccc(CNc2nc(NCc3ccccc3)c3nc[nH]c3n2)c1
## Output 48

## Input Proceed to COCCNc1nc(Nc2ccc(OC)cc2)nc2[nH]cnc12
## Output 5

## Input Proceed to COCCNc1nc(NCc2cccc(Br)c2)nc2[nH]cnc12
## Output 43

## Input Proceed to COCCNc1nc(Nc2ccc(O)cc2)nc2[nH]cnc12
## Output 7

## Input Proceed to FC(F)Oc1cccc(CNc2nc(NCc3ccccc3)c3nc[nH]c3n2)c1
## Output 55

## Input Proceed to FC(F)(F)c1cccc(CNc2nc(N3CCOCC3)c3nc[nH]c3n2)c1
## Output 82
